- experimental details: qHTS to identify inhibitors of the type 1 interferon - major histocompatibility complex class I in skeletal muscle: primary screen against the NCATS Mechanism Interrogation Plate v5.0 (MIPE) Libary (AID 1347411); further: nearly all actives have a fitted effect of over 65% in size
- condition summary: iHSKM cells + IFN-b, HiBiT-tagged MHC-I luminescence, 24 h; series mostly up to 45.8 µM
- Excerpt: Assay Submitter (PI): Travis B. Kinder Ph.D. & James Inglese Ph.D. Assay Development and Screening Technology Laboratory (ADST) National Center for Advancing Translational Sciences (NCATS), Rockville, MD National Institute of Health (NIH), Bethesda, Maryland […] 7; Detector; 5 sec; Measure luminescence with ViewLux 1430 Ultra HTS (Perkin Elmer). […]
Inconclusive results are not listed. Activity calls are given as the source filed them. The call rests on the fitted dose curve; in most records, active means well fitted inhibition curve with a large enough effect; inconclusive means small, poorly fitted or top-dose-only effect; inactive means no such curve, though single readings can be large or run the other way.
Labels: true (1) = active, false (0) = inactive

# compound, group
measured = [
    ("O=S(=O)(Nc1ccc(-c2cccnc2)c2cccnc12)c1cccc(C(F)(F)F)c1", "true (1)"),
    ("C/C(=N\\NC(=O)c1cccc(S(=O)(=O)N2CCOCC2)c1)c1cc(Cl)ccc1O", "false (0)"),
    ("N#Cc1ccc(N(Cc2ccc(Br)cc2)n2cnnc2)cc1", "false (0)"),
    ("CN1C(=O)N(c2cc(Cl)cc(Cl)c2)C(=O)[C@]12CN(Cc1cc(C(=O)O)cs1)C[C@H]2c1ccc(C#N)cc1", "false (0)"),
    ("C/C(=N\\NC(=S)N1CCC1)c1ccccn1", "false (0)"),
    ("C=C1C[C@H]2C=Nc3cc(OCCCOc4cc5c(cc4OC)C(=O)N4CC(=C)C[C@H]4C=N5)c(OC)cc3C(=O)N2C1", "false (0)"),
    ("CC(C)(O)CC[C@@H](O)[C@](C)(O)[C@H]1CC[C@@]2(O)C3=CC(=O)[C@@H]4C[C@@H](O)[C@@H](O)C[C@]4(C)[C@H]3CC[C@]12C", "false (0)"),
    ("Nc1nccc(-c2c(-c3ccc(F)cc3)ncn2C2CCN(Cc3ccon3)CC2)n1", "false (0)"),
    ("O=C1OC(COc2ccccc2[N+](=O)[O-])CC1Cc1ccccc1 (centres undefined)", "false (0)"),
]
